Sourced from patent US12415770B2

Target: LRH-1 (Homo sapiens, UniProt O00482)
Construct: The transfected plasmids included full-length LRH-1 in a pCI vector; expressed in transfected cells; host or cells: HeLa
Sequence (O00482 whole entry): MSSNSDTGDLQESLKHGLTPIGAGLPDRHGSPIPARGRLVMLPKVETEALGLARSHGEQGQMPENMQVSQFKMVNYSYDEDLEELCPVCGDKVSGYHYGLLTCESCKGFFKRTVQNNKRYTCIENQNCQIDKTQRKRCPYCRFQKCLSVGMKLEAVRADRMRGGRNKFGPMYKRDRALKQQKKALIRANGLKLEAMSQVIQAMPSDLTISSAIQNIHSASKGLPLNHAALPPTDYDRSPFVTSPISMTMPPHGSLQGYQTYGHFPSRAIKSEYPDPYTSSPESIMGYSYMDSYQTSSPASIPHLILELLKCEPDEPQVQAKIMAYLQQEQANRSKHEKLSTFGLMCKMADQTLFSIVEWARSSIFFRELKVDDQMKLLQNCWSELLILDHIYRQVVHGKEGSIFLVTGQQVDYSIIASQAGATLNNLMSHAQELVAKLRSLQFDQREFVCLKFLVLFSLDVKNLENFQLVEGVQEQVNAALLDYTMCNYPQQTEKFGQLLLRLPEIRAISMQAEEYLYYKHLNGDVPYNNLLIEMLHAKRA
Test: Luciferase reporter assay (SHP-luc) in HeLa cells transfected with full-length LRH-1
Format: cell-based
Details: HeLa cells, SHP-luc reporter, 24 hours, 0.03-30 μM
pEC50: −log10 of the molar value.
List of pEC50 values.

- molecule: "C=C(c1ccccc1)[C@@]12CC[C@@H](O)C1CC(CCCCCC)=C2c1cc(O)ccc1F (mixture of isomers) [Compound 16f]"
  assay-target: "LRH-1 (Homo sapiens, UniProt O00482)"
  pEC50: "< 4.52"
- molecule: "C=C(c1ccccc1)C12CCC(O)C1CC(CCCCCCCCOP(=O)([O-])OCC[N+](C)(C)C)=C2c1ccccc1 (stereo not drawn) [Compound 9g]"
  assay-target: "LRH-1 (Homo sapiens, UniProt O00482)"
  pEC50: "< 4.52"

Proceeding to the next molecule to report its pEC50.
Ask: What does the record list as pEC50 for C=C(c1ccccc1)[C@@]12CC[C@@H](O)C1CC(CCCCCC)=C2c1cc(N)ccc1C (mixture of isomers) [Compound 17g] ?
Result: < 4.52

----------
Target: LRH-1 LBD (Homo sapiens, UniProt O00482)
Construct: LRH-1 LBD (residues 299-541) in the pMSC7 vector was expressed in BL21 (DE3) pLysS E. coli; made in house; host or cells: E. coli BL21 (DE3) pLysS
Sequence (O00482 299-541): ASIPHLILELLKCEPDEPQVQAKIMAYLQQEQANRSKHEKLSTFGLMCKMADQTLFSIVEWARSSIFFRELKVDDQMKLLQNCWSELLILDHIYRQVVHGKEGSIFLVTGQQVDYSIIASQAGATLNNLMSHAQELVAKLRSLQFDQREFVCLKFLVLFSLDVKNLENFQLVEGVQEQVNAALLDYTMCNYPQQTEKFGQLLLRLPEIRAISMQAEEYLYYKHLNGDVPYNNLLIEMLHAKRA
Assay: Thermofluor (DSF) assay, purified LRH-1 LBD-His protein
Type: binding
Details: 50 μM compound; relative to DLPC-bound LRH-1; read-out: ΔTm (mean +/− SEM) (° C.)
Returns one of Condition met or Condition not met; Condition met when ΔTm at 50 µM is >= 3 °C.

See these solved cases before continuing.
- compound: "C=C(c1ccccc1)[C@@]12CC[C@@H](O)C1CC(CCCCCC)=C2c1cc(O)ccc1F (mixture of isomers) [Compound 16f]"
  class-name: "Condition not met"
- compound: "C=C(c1ccccc1)[C@@]12CC[C@@H](N)C1CC(CCCCCC)=C2c1ccccc1 (stereo partly drawn) [Compound 33-exo]"
  class-name: "Condition not met"
- compound: "C=C(c1ccccc1F)[C@@]12CC[C@@H](O)C1CC(CCCCCC)=C2c1ccccc1 (mixture of isomers) [Compound 20]"
  class-name: "Condition not met"
- compound: "C=C(c1ccccc1)C12CCC(O)C1CC(CCCCCCCCOP(=O)([O-])OCC[N+](C)(C)C)=C2c1ccccc1 (stereo not drawn) [Compound 9g]"
  class-name: "Condition met"
- compound: "C=C(c1ccccc1)[C@@]12CC[C@H](OC(N)=O)C1CC(CCCCCC)=C2c1ccccc1 (stereo partly drawn) [Compound 29-endo]"
  class-name: "Condition not met"

Ask: Is reported ΔTm at 50 µM greater than or equal to 3 °C here: C=C(c1ccccc1)C12CCC(O)C1CC(CCCCCCO)=C2c1ccccc1 (stereo not drawn) [Compound 7e]
Result: Condition met
